Tested on: 292921-168-R-J2-PDC KRAS tumor spheroid viability;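 note: drug exposure lasted seven days after spheroids formed for three days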
Test: Anticancer human tumor 292921-168-R-J2-PDC patient-derived pancreatic carcinoma cell line growth inhibition [KRAS2]
Conditions: curve of first compound; second compound 3.16 µM; spheroids with HUVEC and MSC
pIC50: −log10 of the molar value.
# pIC50 listing for each entry below

Compound	Assay Readout	Obs Value
CN(C)C/C=C/C(=O)Nc1cc2c(Nc3ccc(F)c(Cl)c3)ncnc2cc1O[C@H]1CCOC1 + CC1OCC2(CCN(c3cnc(Sc4ccnc(N)c4Cl)c(N)n3)CC2)C1N	pIC50	> 9.50
CC(C)n1nc(-c2ccc3oc(N)nc3c2)c2c(N)ncnc21 + CC1OCC2(CCN(c3cnc(Sc4ccnc(N)c4Cl)c(N)n3)CC2)C1N	pIC50	> 9.50
CC(C)n1nc(-c2ccc3oc(N)nc3c2)c2c(N)ncnc21 + COc1cc2nc(C)nc(NC(C)c3cc(N)cc(C(F)(F)F)c3)c2cc1OC1CCOC1	pIC50	8.87
CC(=O)OC12COC1CC(O)C1(C)C(=O)C(O)C3=C(C)C(OC(=O)C(O)C(NC(=O)OC(C)(C)C)c4ccccc4)CC(O)(C(OC(=O)c4ccccc4)C21)C3(C)C (stereo unspecified) + CNCc1ccccc1-c1csc(C(C)Nc2nc(C)nc3cc(OC)c(OC)cc23)c1	pIC50	> 8.00
COC(=O)c1ccc2c(C(=Nc3ccc(N(C)C(=O)CN4CCN(C)CC4)cc3)c3ccccc3)c(O)[nH]c2c1 + C=CC(=O)N1CCN(c2nc(=O)n(-c3c(C)ccnc3C(C)C)c3nc(-c4c(O)cccc4F)c(F)cc23)C(C)C1	pIC50	7.38

--- query ---
Which value of pIC50 has been reported for Cn1nccc1Nc1nccc(-c2cc3c(s2)C(C)(C)N(CCN2CCOCC2)C3=O)n1 + CNCc1ccccc1-c1csc(C(C)Nc2nc(C)nc3cc(OC)c(OC)cc23)c1 in the records?
> 7.50
